target: YRDCWT (human YRDC, ΔN43) (Homo sapiens, UniProt Q86U90, C121A); construct: lacks first 43 residues (N-terminal truncation); N-terminal His6 tag removed with TEV; E. coli BL21(DE3); homodimer; experiment: biochemical; details: With L-threonine; DSF apparent KD
Sequence (Q86U90 44-279 C121A): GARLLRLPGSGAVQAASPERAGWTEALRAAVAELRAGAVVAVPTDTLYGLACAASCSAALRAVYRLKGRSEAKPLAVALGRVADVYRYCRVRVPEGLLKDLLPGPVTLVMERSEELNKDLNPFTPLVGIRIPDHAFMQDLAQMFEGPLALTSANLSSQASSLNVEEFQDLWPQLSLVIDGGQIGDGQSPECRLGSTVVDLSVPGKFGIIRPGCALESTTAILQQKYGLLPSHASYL
measuredEndpoint: Kd (µM)
# value in µM; strip the unit string

Give the reported Kd for Nc1ncnc2c1ncn2[C@@H]1O[C@H](COP(=O)(O)OP(=O)(O)OP(=O)(O)O)[C@@H](O)[C@H]1O [ATP] (system: YRDCWT (human YRDC, ΔN43) (Homo sapiens, UniProt Q86U90, C121A)).
133

* * *

molecular target: YRDCWT (human YRDC, ΔN43) (Homo sapiens, UniProt Q86U90); construct: lacks first 43 residues (N-terminal truncation); N-terminal His6 tag removed with TEV; E. coli BL21(DE3); homodimer; test: biochemical; set-up: SYPRO Orange DSF; apparent Kd from Tm versus ligand concentration; conditions: With ATP; DSF apparent KD
Sequence (Q86U90 with tags, fused parts or gaps DEL265-265): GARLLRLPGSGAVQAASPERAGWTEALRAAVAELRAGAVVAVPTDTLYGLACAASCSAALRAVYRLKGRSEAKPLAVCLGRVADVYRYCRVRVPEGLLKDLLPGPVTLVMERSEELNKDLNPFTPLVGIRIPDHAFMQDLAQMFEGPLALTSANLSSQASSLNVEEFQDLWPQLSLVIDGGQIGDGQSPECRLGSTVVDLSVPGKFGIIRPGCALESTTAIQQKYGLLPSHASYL
measuredEndpoint: Kd (mM)
# value in mM; strip the unit string

Query: Kd; subject: C[C@@H](O)[C@H](N)C(=O)O [L-threonine]
2.1
